All figures here come from ChEMBL document CHEMBL3988442.

Biological target: AMP-activated protein kinase, AMPK (Homo sapiens) (UniProt P54646+O43741+P54619+Q9UGJ0+Q9Y478+Q13131+Q9UGI9)
Assay: AMP-dependent Kinase enzyme assay. An in vitro enzyme assay that detects ADP turnover that is directly proportional to AMPK activity. This uses naive AMPK that is activated during the assay with MK-8722
Assay type: functional
Design: scale not given: direction of the effect not stated beside the values
Details: 30 µM
ENDPOINT LABEL: Percent Effect (%)
Provide only the numeric value, understood in %.

The examples below pair each entry with its known result.
MOLECULE	REPORTED RESULT
COCCN(CCOC)C(=O)c1cnn(C)c1C	-3.12
CCCC(=O)Nc1cccc(C(=O)N(C)CCCC2CCCO2)c1 (configuration not stated)	7.97

Quick check: Percent Effect of Cc1ccccc1C(=O)NC[C@@H]1CCN(C(=O)c2cscn2)C[C@H]1O ?
1.22

Would you mind telling me what Percent Effect value was observed for Cc1nccn1CC1CCCN(C(=O)Cc2ccsc2)C1 (configuration not stated) ?
0.964
